- Tested on: rodent lifetime carcinogenesis bioassay, tumor incidence TD50
- protocol description: carcinogenic potency in animals, long-term in vivo studies, CPDB compilation (AID 1745844)
- assay conditions: rat; strain Fischer 344; males; by gavage; site: all sites; lesion: mononuclear-cell leukemia; dosed 94 weeks; study length 104 weeks

| structure smiles string | TD50, mg/kg/day |
| --- | --- |
| ClCC(Cl)CCl | 11.9 |

* * *

- System: rodent lifetime carcinogenesis bioassay, tumor incidence TD50
- protocol description: carcinogenic potency in animals, long-term in vivo studies, CPDB compilation (AID 1745844)
- assay conditions: rat; strain Wistar; females; inhaled; site: lung; lesion: alveolar/bronchiolar adenoma; dosed 78 weeks; study length 126 weeks

| structure smiles string | TD50 |
| --- | --- |
| O=S(=O)([O-])[O-].[Cd+2] | 0.18 mg/kg/day |
